The reported measurements were obtained from ChEMBL document CHEMBL1140875.

tested on: Escherichia coli; experiment: Induction of DNA photocleavage activity in Escherichia coli pBR322 plasmid assessed as supercoiled DNA form at 10 uM after 60 mins irradiation at 2.5 mW/cm2 by gel electrophoresis
Parameter Measured: Activity (%)

Sample answers from the record:
C=CC1=C(C)c2cc3[nH]c(cc4nc(cc5[nH]c(cc1n2)c(C)c5CCC(=O)NCCCCC(=O)N(CCCN)CCCCN)C(CCC(=O)NCCCCC(=O)N(CCCN)CCCCN)=C4C)c(C)c3C=C
22
Cc1cc(C)c(-c2c3nc(c(-c4ccc(C(=O)NCCCCC(=O)N(CCCN)CCCCNCCCN)cc4)c4ccc([nH]4)c(-c4c(C)cc(C)cc4C)c4nc(c(-c5ccc(C(=O)NCCCCC(=O)N(CCCN)CCCCNCCCN)cc5)c5ccc2[nH]5)C=C4)C=C3)c(C)c1
70
NCCCNCCCCN(CCCN)C(=O)CCCCNC(=O)c1ccc(-c2c3nc(c(-c4ccc(C(=O)NCCCCC(=O)N(CCCN)CCCCNCCCN)cc4)c4ccc([nH]4)c(-c4ccc(C(=O)NCCCCC(=O)N(CCCN)CCCCNCCCN)cc4)c4nc(c(-c5ccc(C(=O)NCCCCC(=O)N(CCCN)CCCCNCCCN)cc5)c5ccc2[nH]5)C=C4)C=C3)cc1
40
NCCCCN(CCCN)C(=O)CCCCNC(=O)c1ccc(-c2c3nc(c(-c4ccc(C(=O)NCCCCC(=O)N(CCCN)CCCCN)cc4)c4ccc([nH]4)c(-c4ccc(C(=O)NCCCCC(=O)N(CCCN)CCCCN)cc4)c4nc(c(-c5ccc(C(=O)NCCCCC(=O)N(CCCN)CCCCN)cc5)c5ccc2[nH]5)C=C4)C=C3)cc1
59

(a) Cc1cc(C)c(-c2c3nc(c(-c4ccc(C(=O)NCCCCC(=O)N(CCCN)CCCCN)cc4)c4ccc([nH]4)c(-c4c(C)cc(C)cc4C)c4nc(c(-c5ccc(C(=O)NCCCCC(=O)N(CCCN)CCCCN)cc5)c5ccc2[nH]5)C=C4)C=C3)c(C)c1
(b) C=CC1=C(C)c2cc3[nH]c(cc4nc(cc5[nH]c(cc1n2)c(C)c5CCC(=O)NCCCCC(=O)N(CCCN)CCCCNCCCN)C(CCC(=O)NCCCCC(=O)N(CCCN)CCCCNCCCN)=C4C)c(C)c3C=C
Query string: Parameter check: reported Activity is higher for which label, a or b ? Answer by quoting the chosen item's label.
Result string: a
(a: 72%, b: 7%)

----------
system: Escherichia coli; test: Induction of DNA photocleavage activity in Escherichia coli pBR322 plasmid assessed as supercoiled DNA form at 10 uM after 30 mins irradiation at 2.5 mW/cm2 by gel electrophoresis
Parameter Measured: Activity (%)

C=CC1=C(C)c2cc3[nH]c(cc4nc(cc5[nH]c(cc1n2)c(C)c5CCC(=O)NCCCCC(=O)N(CCCN)CCCCN)C(CCC(=O)NCCCCC(=O)N(CCCN)CCCCN)=C4C)c(C)c3C=C
36

(P) C=CC1=C(C)c2cc3[nH]c(cc4nc(cc5[nH]c(cc1n2)c(C)c5CCC(=O)NCCCCC(=O)N(CCCN)CCCCNCCCN)C(CCC(=O)NCCCCC(=O)N(CCCN)CCCCNCCCN)=C4C)c(C)c3C=C
(Q) Cc1cc(C)c(-c2c3nc(c(-c4ccc(C(=O)NCCCCC(=O)N(CCCN)CCCCN)cc4)c4ccc([nH]4)c(-c4c(C)cc(C)cc4C)c4nc(c(-c5ccc(C(=O)NCCCCC(=O)N(CCCN)CCCCN)cc5)c5ccc2[nH]5)C=C4)C=C3)c(C)c1
Query string: Parameter check: reported Activity is higher for which label, P or Q ? Answer by quoting the chosen item's label.
Result string: Q
